- Tested system: GST-tagged truncated human mutant G2019S LRRK2 (Homo sapiens, UniProt Q5S007, G2019S)
- Construct: GST-tagged truncated human mutant G2019S LRRK2; purchased Life Technologies Corporation (Carlsbad, CA)
- Sequence (Q5S007 970-2527 G2019S limits assumed): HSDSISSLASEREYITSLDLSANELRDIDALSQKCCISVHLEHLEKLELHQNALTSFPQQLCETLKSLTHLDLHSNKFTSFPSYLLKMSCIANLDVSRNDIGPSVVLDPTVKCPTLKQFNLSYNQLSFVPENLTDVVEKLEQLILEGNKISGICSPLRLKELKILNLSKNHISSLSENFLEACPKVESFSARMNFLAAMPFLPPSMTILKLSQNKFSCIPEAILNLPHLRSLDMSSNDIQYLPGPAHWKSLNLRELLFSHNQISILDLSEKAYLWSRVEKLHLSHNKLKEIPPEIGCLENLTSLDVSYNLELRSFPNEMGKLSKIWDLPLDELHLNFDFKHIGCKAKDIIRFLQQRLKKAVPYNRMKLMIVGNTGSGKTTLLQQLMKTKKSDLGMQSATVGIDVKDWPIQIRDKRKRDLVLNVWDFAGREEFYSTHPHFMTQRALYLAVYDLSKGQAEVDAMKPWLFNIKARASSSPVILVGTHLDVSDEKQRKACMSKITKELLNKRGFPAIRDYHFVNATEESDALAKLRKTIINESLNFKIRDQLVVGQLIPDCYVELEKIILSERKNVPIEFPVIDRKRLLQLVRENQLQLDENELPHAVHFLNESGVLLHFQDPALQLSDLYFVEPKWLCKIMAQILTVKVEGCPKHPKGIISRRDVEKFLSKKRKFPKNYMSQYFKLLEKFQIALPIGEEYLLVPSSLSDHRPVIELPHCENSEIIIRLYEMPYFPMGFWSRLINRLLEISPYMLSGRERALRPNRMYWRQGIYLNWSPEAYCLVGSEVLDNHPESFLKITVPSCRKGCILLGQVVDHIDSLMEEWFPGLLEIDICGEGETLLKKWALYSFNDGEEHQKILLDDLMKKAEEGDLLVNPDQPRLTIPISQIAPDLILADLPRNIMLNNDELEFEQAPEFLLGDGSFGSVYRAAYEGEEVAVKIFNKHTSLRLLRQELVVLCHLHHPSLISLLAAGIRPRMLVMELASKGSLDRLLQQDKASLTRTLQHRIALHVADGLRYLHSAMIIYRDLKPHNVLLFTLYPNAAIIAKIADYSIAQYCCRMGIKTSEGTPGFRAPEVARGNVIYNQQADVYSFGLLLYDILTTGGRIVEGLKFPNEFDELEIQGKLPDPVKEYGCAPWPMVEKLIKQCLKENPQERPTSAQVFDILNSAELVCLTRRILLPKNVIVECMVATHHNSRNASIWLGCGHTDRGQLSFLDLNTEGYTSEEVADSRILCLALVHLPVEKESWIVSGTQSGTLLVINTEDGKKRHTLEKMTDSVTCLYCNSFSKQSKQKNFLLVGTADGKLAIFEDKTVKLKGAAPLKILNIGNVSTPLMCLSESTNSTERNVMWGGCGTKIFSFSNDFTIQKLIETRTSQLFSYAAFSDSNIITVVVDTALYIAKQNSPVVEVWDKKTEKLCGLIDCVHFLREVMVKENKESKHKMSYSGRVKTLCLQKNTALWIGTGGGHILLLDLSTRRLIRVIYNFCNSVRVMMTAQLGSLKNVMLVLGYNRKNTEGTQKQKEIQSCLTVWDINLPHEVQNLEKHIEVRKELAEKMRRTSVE
- Experiment notes: LRRK2 G2019S Km ATP LanthaScreen assay
- Type: biochemical
- Condition context: 134 μM ATP (Km ATP), LRRKtide substrate, mean of several tests, read-out: LRRK2 pIC50 (converted)
Entries annotated with measured IC50

Compound: Cn1ncc(C2CC2C(=O)Nc2cc3cc(N4CCN(C5(C)CCOC5)CC4)c(Cl)cc3cn2)c1C(F)(F)F (single isomer, unassigned) [Ex-10.28]
IC50 / nM: 56.2
//
Compound: Cc1cc2cnc(NC(=O)C3CC34CCOC4)cc2cc1N1CCN(C2(C)COCC2O)CC1 (single isomer, unassigned) [Ex-6.5]
IC50 / nM: 1.05
//
Compound: CC1(N2CCN(c3cc4cc(NC(=O)C5CC56CCOCC6)ncc4cc3Cl)CC2)CCOC1 (single isomer, unassigned) [Ex-5.12]
IC50 / nM: 126
//
Compound: COCC1CCC1C(=O)Nc1cc2cc(N3CCN(C4(C)COCC4O)CC3)c(Cl)cc2cn1 (single isomer, unassigned) [Ex-1.26]
IC50 / nM: 1.45
//
Compound: O=C(Nc1cc2cc(N3CCN(C4COCC4O)CC3)c(Cl)cc2cn1)C1CC1 (single isomer, unassigned) [Ex-1.3]
IC50 / nM: 1.95
//
Compound: Cc1cc2cnc(NC(=O)C3CC3c3ccccn3)cc2cc1N1CCN(C2(C)COCC2F)CC1 (single isomer, unassigned) [Ex-6.14]
IC50 / nM: 0.148
//
Compound: Cc1cc2cnc(NC(=O)C3CC34CCOC4)cc2cc1N1CCN(C2(C)COCC2O)CC1 (single isomer, unassigned) [Ex-6.8]
IC50 / nM: 631
//
Compound: CCC1C(C(=O)Nc2cc3cc(N4CCN(C5(C)CCOC5)CC4)c(Cl)cc3cn2)C1c1cnn(C)c1 (single isomer, unassigned) [Ex-9.10]
IC50 / nM: 0.0813
//
Compound: CC1(N2CCN(c3cc4cc(NC(=O)C5CC56CC6)ncc4cc3Cl)CC2)COCC1F (single isomer, unassigned) [Ex-10.80]
IC50 / nM: 0.123
//
Compound: CCOC1CC2(C1)CC2C(=O)Nc1cc2cc(N3CCN(C4(C)COCC4F)CC3)c(Cl)cc2cn1 (single isomer, unassigned) [Ex-10.23]
IC50 / nM: 0.724
//
Compound: CC1C(C(=O)Nc2cc3cc(N4CCN(C5(C)CCOC5)CC4)c(Cl)cc3cn2)C1c1cnn(C)c1 (stereo not shown) [Ex-9.6]
IC50 / nM: 1
//
Compound: CC1C(C(=O)Nc2cc3cc(N4CCN(C5(C)COCC5O)CC4)c(Cl)cc3cn2)C1c1ccccn1 (single isomer, unassigned) [Ex-11.3]
IC50 / nM: 0.0813
//
Compound: CC1(N2CCN(c3cc4cc(NC(=O)C5CC56CC6)ncc4cc3Cl)CC2)COCC1O (single isomer, unassigned) [Ex-2.12]
IC50 / nM: 0.513

###

- Tested system: GST-tagged truncated human mutant G2019S LRRK2 (Homo sapiens, UniProt Q5S007, G2019S)
- Construct: GST-tagged truncated human mutant G2019S LRRK2; purchased Life Technologies Corporation (Carlsbad, CA)
- Experiment notes: LRRK2 G2019S Km ATP LanthaScreen assay
- Assay type: biochemical
- Condition context: 134 μM ATP (Km ATP), LRRKtide substrate, mean of several tests, read-out: LRRK2 pIC50 (converted)
Property label: IC50

Compound: CC1C(C(=O)Nc2cc3cc(N4CCN(C5(C)COCC5O)CC4)c(Cl)cc3cn2)C1c1ccccn1 (single isomer, unassigned) [Ex-11.4]
Result: 0.977 nM

Compound: CC1(C2CCOC2)CC1C(=O)Nc1cc2cc(N3CCN(C4(C)COCC4O)CC3)c(Cl)cc2cn1 (single isomer, unassigned) [Ex-10.81]
Result: 0.0813 nM

Compound: Cn1ccc(C2CC2C(=O)Nc2cc3cc(N4CCN(C5(C)COCC5F)CC4)c(Cl)cc3cn2)n1 (single isomer, unassigned) [Ex-10.17]
Result: 2.75 nM

###

- Tested system: GST-tagged truncated human mutant G2019S LRRK2 (Homo sapiens, UniProt Q5S007, G2019S)
- Construct: GST-tagged truncated human mutant G2019S LRRK2; purchased Life Technologies Corporation (Carlsbad, CA)
- Experiment notes: LRRK2 G2019S Km ATP LanthaScreen assay
- Type: biochemical
- Condition context: 134 μM ATP (Km ATP), LRRKtide substrate, mean of several tests, read-out: LRRK2 pIC50 (converted)
Property label: IC50 (µM)

Molecule: CC1(N2CCN(c3cc4cc(NC(=O)C5CC56CCCOC6)ncc4cc3Cl)CC2)COCC1O (single isomer, unassigned) [Ex-1.16]
Tested system: GST-tagged truncated human mutant G2019S LRRK2 (Homo sapiens, UniProt Q5S007, G2019S)
Property label: IC50
Numeric readout: 0.112
--
Molecule: Cc1cc2cnc(NC(=O)C3CCOC(C)(C)C3)cc2cc1N1CCN(C2(C)CCOC2)CC1 (single isomer, unassigned) [Ex-10.41]
Tested system: GST-tagged truncated human mutant G2019S LRRK2 (Homo sapiens, UniProt Q5S007, G2019S)
Property label: IC50
Numeric readout: 0.000309
--
Molecule: CC1(C)OCCC1C(=O)Nc1cc2cc(N3CCN(C4(C)COCC4O)CC3)c(Cl)cc2cn1 (single isomer, unassigned) [Ex-1.24]
Tested system: GST-tagged truncated human mutant G2019S LRRK2 (Homo sapiens, UniProt Q5S007, G2019S)
Property label: IC50
Numeric readout: 0.0692

###

Entries annotated with measured IC50
- Tested system: GST-tagged truncated human mutant G2019S LRRK2 (Homo sapiens, UniProt Q5S007, G2019S)
- Construct: GST-tagged truncated human mutant G2019S LRRK2; purchased Life Technologies Corporation (Carlsbad, CA)
- Experiment notes: LRRK2 G2019S Km ATP LanthaScreen assay
- Type: biochemical
- Condition context: 134 μM ATP (Km ATP), LRRKtide substrate, mean of several tests, read-out: LRRK2 pIC50 (converted)
- From the text: Unless otherwise noted, all reactions are magnetically stirred. Unless otherwise noted, when diethyl ether is used in the experiments described below, it is Fisher ACS certified material and is stabilized with BHT. Unless otherwise noted, “concentrated” and/or “solvent removed under reduced pressure” means evaporating the solvent from a solution or mixture using a rotary evaporator or vacuum pump. […]

Compound: Cc1cc2cnc(NC(=O)C3CC34CCOC4)cc2cc1N1CCN(C2(C)COCC2O)CC1 (single isomer, unassigned) [Ex-6.6]
IC50 [nM]: 45.7
//
Compound: CCc1cc2cnc(NC(=O)C3CC34CCOCC4)cc2cc1N1CCN(C2(C)COCC2O)CC1 (single isomer, unassigned) [Ex-12]
IC50 [nM]: 0.525
//
Compound: CC1(C2CCOC2)CC1C(=O)Nc1cc2cc(N3CCN(C4(C)COCC4O)CC3)c(Cl)cc2cn1 (single isomer, unassigned) [Ex-10.85]
IC50 [nM]: 0.0813
//
Compound: CC1(N2CCN(c3cc4cc(NC(=O)C5CC56CCOC6)ncc4cc3Cl)CC2)COCC1O (single isomer, unassigned) [Ex-2.10]
IC50 [nM]: 0.589
//
Compound: CC1(N2CCN(c3cc4cc(NC(=O)C5CC5C5CCOCC5)ncc4cc3Cl)CC2)COCC1O (single isomer, unassigned) [Ex-10.31]
IC50 [nM]: 0.0813
//
Compound: Cn1ccc(C2CC2C(=O)Nc2cc3cc(N4CCN(C5(C)COCC5F)CC4)c(Cl)cc3cn2)n1 (single isomer, unassigned) [Ex-10.18]
IC50 [nM]: 8.71

###

- Tested system: GST-tagged truncated human mutant G2019S LRRK2 (Homo sapiens, UniProt Q5S007, G2019S)
- Construct: GST-tagged truncated human mutant G2019S LRRK2; purchased Life Technologies Corporation (Carlsbad, CA)
- Experiment notes: LRRK2 G2019S Km ATP LanthaScreen assay
- Assay type: biochemical
- Condition context: 134 μM ATP (Km ATP), LRRKtide substrate, mean of several tests, read-out: LRRK2 pIC50 (converted)

Molecule: CC1(C#N)CCN(c2cc3cc(NC(=O)C4CC4c4cncnc4)ncc3cc2Cl)CC1 (single isomer, unassigned) [Ex-5.15]
IC50 / nM: 6.17
--
Molecule: CCOC1CC1C(=O)Nc1cc2cc(N3CCN(C4(C)COCC4O)CC3)c(Cl)cc2cn1 (single isomer, unassigned) [Ex-10.12]
IC50 / nM: 0.0832
--
Molecule: CCC1C(C(=O)Nc2cc3cc(N4CCN(C5(C)CCOC5)CC4)c(Cl)cc3cn2)C1c1cnn(C)c1 (single isomer, unassigned) [Ex-9.11]
IC50 / nM: 1.15
--
Molecule: CC(C)n1nccc1C1CC1C(=O)Nc1cc2cc(N3CCN(C4(C)COCC4O)CC3)c(Cl)cc2cn1 (single isomer, unassigned) [Ex-10.22]
IC50 / nM: 2.69
--
Molecule: CC1C(C(=O)Nc2cc3cc(N4CCN(C5(C)CCOC5)CC4)c(Cl)cc3cn2)C1c1cnn(C)c1 (single isomer, unassigned) [Ex-9.9]
IC50 / nM: 0.417
--
Molecule: C[C@H]1CN(C2(C)COCC2O)CCN1c1cc2cc(NC(=O)C3CC34CCOCC4)ncc2cc1Cl (single isomer, unassigned) [Ex-14.2]
IC50 / nM: 0.0813
--
Molecule: CC1(N2CCN(c3cc4cc(NC(=O)C5CC5c5cccs5)ncc4cc3Cl)CC2)COCC1O (single isomer, unassigned) [Ex-10.13]
IC50 / nM: 0.0813
--
Molecule: CC1(C2CCOC2)CC1C(=O)Nc1cc2cc(N3CCN(C4(C)COCC4O)CC3)c(Cl)cc2cn1 (single isomer, unassigned) [Ex-10.88]
IC50 / nM: 0.182
--
Molecule: CC1(N2CCN(c3cc4cc(NC(=O)C5CC56CCC6)ncc4cc3Cl)CC2)COCC1O (single isomer, unassigned) [Ex-1.8]
IC50 / nM: 2.34
--
Molecule: CCOC1CC1C(=O)Nc1cc2cc(N3CCN(C4(C)COCC4O)CC3)c(Cl)cc2cn1 (single isomer, unassigned) [Ex-10.11]
IC50 / nM: 0.851
--
Molecule: CC1(C)C(C(=O)Nc2cc3cc(N4CCN(C5(C)COCC5O)CC4)c(Cl)cc3cn2)C1C1CCCCO1 (single isomer, unassigned) [Ex-10.91]
IC50 / nM: 0.0813
--
Molecule: CCC1C(C(=O)Nc2cc3cc(N4CCN(C5(C)COCC5F)CC4)c(Cl)cc3cn2)C1c1ccn(C)n1 (single isomer, unassigned) [Ex-10.49]
IC50 / nM: 0.0813
--
Molecule: CC1(N2CCN(c3cc4cc(NC(=O)C5CC56CC6(F)F)ncc4cc3Cl)CC2)COCC1O (single isomer, unassigned) [Ex-2.16]
IC50 / nM: 0.813

Hello, the source for this data is patent US12516039B2, in case you need it.
